Target: MKK6 (Homo sapiens)
Sequence (P52564 1-334): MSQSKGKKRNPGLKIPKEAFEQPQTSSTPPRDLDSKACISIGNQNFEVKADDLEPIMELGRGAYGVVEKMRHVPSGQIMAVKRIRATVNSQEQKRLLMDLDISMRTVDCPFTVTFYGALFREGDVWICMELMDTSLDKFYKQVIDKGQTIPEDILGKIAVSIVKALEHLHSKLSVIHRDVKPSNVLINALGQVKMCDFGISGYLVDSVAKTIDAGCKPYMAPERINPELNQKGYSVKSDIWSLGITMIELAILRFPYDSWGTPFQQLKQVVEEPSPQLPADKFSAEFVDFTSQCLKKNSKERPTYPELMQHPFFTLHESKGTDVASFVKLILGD
Test: Kinase profiling (radiometric filter-binding)
Format: biochemical
Conditions: MKK6, 1 µM inhibitor; read-out: Residual activity, %
Square brackets hold non-standard residues; d marks the D form. Peptide text beside a SMILES is read from it. * marks the point of attachment. X3 = O=C(CCCCCNCc1nc2c(sc3cc(Br)cnc32)c(=O)[nH]1)*
Measurement Label: remaining activity at 1 µM

Molecule	remaining activity at 1 µM
N=C(N)NCCC[C@@H](NC(=O)CCCCCNCc1nc2c(sc3cc(Br)cnc32)c(=O)[nH]1)C(=O)N[C@H](CCCNC(=N)N)C(=O)N[C@H](CCCNC(=N)N)C(=O)N[C@H](CCCNC(=N)N)C(=O)N[C@H](CCCNC(=N)N)C(=O)N[C@H](CCCNC(=N)N)C(=O)N[C@H](CCCCN)C(N)=O [ARC-3126, BPTP-Ahx-(D-Arg)6-D-Lys-NH2] (X3-[dR][dR][dR][dR][dR][dR][dK]-NH2)	105%

Kindly consider the entry below.
Entry `N=C(N)NCCC[C@@H](NC(=O)CNC(=O)[C@@H](CCCNC(=N)N)NC(=O)[C@@H](CCCNC(=N)N)NC(=O)CCCCCCCNCc1nc2c(sc3cc(Br)cnc32)c(=O)[nH]1)C(=O)N[C@H](CCCCN)C(N)=O` under MKK6 (Homo sapiens) had remaining activity at 1 µM of 122%

* * *

Biological target: HIPK2 (Homo sapiens)
Sequence (Q9H2X6 whole entry): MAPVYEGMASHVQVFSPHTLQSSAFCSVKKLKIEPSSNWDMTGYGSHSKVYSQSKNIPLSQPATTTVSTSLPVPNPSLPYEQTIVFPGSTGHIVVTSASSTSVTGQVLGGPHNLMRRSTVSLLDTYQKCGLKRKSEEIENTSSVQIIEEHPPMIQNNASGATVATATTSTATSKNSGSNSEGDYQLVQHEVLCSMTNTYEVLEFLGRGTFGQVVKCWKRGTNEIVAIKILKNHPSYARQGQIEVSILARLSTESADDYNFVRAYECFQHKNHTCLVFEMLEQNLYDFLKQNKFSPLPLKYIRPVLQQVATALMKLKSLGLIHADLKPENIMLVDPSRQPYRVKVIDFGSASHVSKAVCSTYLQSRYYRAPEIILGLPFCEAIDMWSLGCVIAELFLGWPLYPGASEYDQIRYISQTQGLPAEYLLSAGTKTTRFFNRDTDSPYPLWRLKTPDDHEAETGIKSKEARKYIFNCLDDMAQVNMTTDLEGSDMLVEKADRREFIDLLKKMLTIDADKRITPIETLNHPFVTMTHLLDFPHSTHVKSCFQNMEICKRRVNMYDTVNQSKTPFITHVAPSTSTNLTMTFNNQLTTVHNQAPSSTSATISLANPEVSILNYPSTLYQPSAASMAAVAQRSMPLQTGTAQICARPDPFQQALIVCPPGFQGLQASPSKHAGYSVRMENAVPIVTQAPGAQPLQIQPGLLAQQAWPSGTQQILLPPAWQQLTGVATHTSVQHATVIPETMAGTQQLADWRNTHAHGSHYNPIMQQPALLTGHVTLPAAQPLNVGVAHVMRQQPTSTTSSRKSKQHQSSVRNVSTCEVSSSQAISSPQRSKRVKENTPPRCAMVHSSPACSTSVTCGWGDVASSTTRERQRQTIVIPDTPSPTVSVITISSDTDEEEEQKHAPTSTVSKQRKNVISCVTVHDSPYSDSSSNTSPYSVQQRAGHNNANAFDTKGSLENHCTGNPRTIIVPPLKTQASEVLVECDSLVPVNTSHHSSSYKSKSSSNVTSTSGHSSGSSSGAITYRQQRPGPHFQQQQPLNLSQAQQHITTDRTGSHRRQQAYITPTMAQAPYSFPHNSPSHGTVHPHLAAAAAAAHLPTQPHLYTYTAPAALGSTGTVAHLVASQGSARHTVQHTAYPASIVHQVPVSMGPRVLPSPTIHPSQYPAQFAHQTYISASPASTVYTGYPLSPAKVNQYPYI
Assay: Kinase profiling (radiometric filter-binding)
Format: biochemical
Details: HIPK2, 1 µM inhibitor; read-out: Residual activity, %
Square brackets hold non-standard residues; d marks the D form. Peptide text beside a SMILES is read from it. * marks the point of attachment. X3 = O=C(CCCCCNCc1nc2c(sc3cc(Br)cnc32)c(=O)[nH]1)*
Measurement Label: remaining activity at 1 µM (%)
Use % as the unit, but write only the number.

Look over these answered cases.
Compound	remaining activity at 1 µM (%)
N=C(N)NCCC[C@@H](NC(=O)CNC(=O)[C@@H](CCCNC(=N)N)NC(=O)[C@@H](CCCNC(=N)N)NC(=O)CCCCCCCNCc1nc2c(sc3ccc(Br)cc32)c(=O)[nH]1)C(=O)N[C@H](CCCCN)C(N)=O	48
N=C(N)NCCC[C@@H](NC(=O)CCCCCNCc1nc2c(sc3cc(Br)cnc32)c(=O)[nH]1)C(=O)N[C@H](CCCNC(=N)N)C(=O)N[C@H](CCCNC(=N)N)C(=O)N[C@H](CCCNC(=N)N)C(=O)N[C@H](CCCNC(=N)N)C(=O)N[C@H](CCCNC(=N)N)C(=O)N[C@H](CCCCN)C(N)=O [ARC-3126, BPTP-Ahx-(D-Arg)6-D-Lys-NH2] (X3-[dR][dR][dR][dR][dR][dR][dK]-NH2)	75

Kindly consider the entry below.
Entry `N=C(N)NCCC[C@@H](NC(=O)CNC(=O)[C@@H](CCCNC(=N)N)NC(=O)[C@@H](CCCNC(=N)N)NC(=O)CCCCCCCNCc1nc2c(sc3cc(Br)cnc32)c(=O)[nH]1)C(=O)N[C@H](CCCCN)C(N)=O` under HIPK2 (Homo sapiens) had remaining activity at 1 µM of 103
